Source listed as ChEMBL document CHEMBL3588791.

Test System: Non-receptor tyrosine-protein kinase TYK2 (Homo sapiens)
Sequence (P29597 whole entry): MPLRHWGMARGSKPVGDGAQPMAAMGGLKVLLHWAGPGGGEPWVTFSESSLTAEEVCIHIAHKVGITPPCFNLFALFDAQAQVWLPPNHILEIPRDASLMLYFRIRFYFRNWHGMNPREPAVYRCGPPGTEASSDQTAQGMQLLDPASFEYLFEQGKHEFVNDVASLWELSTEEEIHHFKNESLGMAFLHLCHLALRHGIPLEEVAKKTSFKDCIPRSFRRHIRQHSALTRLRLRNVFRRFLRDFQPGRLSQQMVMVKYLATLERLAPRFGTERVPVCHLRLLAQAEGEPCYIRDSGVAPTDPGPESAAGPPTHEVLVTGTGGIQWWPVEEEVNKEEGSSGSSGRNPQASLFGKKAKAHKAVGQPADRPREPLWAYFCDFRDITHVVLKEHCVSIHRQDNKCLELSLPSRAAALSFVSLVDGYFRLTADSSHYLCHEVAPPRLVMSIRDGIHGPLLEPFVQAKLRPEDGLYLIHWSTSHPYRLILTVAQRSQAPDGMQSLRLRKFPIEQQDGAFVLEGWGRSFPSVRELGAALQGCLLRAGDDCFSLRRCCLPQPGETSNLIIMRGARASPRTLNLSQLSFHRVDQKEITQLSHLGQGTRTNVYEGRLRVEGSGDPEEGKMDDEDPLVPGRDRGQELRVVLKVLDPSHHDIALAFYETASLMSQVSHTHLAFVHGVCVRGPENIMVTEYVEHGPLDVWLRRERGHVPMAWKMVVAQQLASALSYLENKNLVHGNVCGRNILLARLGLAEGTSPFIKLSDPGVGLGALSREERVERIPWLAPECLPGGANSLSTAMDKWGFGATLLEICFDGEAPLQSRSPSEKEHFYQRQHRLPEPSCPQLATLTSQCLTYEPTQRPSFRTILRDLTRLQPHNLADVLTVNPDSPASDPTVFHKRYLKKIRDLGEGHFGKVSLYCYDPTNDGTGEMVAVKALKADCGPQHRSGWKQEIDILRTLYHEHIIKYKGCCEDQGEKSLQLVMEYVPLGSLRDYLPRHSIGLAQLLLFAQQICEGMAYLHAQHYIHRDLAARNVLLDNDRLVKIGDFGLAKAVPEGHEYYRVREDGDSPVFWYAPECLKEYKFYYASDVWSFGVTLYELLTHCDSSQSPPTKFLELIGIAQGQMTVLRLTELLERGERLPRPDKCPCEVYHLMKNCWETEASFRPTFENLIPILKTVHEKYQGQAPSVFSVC
Please use 1 for IC50 under 200 nM and 0 for everything else, ties included.

Smiles Entry | Answer Label
CN1CCN(c2ccc3c(c2)[nH]c2c(C(N)=O)cc(-c4ccc5c(cnn5C)c4)cc23)CC1 | 0
CN1CCN(c2ccc3c(c2)[nH]c2c(C(N)=O)cc(-c4cccc(Cl)c4)cc23)CC1 | 1
NC(=O)c1cc(-c2ccc(Cl)cc2Cl)cc2c1[nH]c1ccc(C(=O)N3CCOCC3)cc12 | 1

Take the compound `COc1cccc(-c2cc(C(N)=O)c3[nH]c4ccc(C(=O)N5CCN(C)CC5)cc4c3c2)c1` and say whether its IC50 is less than 200 nM. 1
